- System under test: UniProt:P85968
- Sequence (P85968 whole entry): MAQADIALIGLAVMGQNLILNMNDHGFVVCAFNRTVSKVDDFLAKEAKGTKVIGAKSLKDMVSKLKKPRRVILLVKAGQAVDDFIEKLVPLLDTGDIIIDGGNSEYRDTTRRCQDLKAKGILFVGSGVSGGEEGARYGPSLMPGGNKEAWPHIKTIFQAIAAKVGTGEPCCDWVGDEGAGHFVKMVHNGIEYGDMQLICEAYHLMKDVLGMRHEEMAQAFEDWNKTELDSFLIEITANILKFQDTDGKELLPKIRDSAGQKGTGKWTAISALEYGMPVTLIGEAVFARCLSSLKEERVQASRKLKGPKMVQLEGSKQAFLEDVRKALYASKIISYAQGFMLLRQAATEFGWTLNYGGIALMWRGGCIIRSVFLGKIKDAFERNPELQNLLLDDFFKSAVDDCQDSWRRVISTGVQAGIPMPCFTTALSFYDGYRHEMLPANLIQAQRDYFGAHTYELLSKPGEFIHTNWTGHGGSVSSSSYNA
Quantity kind: IC50 (nM)
Give the quantity in nM, number only.

Task: Fill in reported IC50 for this entry: NC(=O)c1ccc(N)[n+]([C@@H]2O[C@H](COP(=O)(O)OP(=O)(O)OC[C@H]3O[C@@H](n4cnc5c(N)ncnc54)[C@H](OP(=O)(O)O)[C@@H]3O)[C@@H](O)[C@H]2O)c1
Output: 200
